# System: UMUC-3 cells
# procedure.summary: XTT cell viability assay
# Type: cell-based, human
# settings: Homo sapiens, UMUC3, 2 h, read-out: MMC EC50 value
property: pEC50
API: returns pEC50 as number; meaning -log10 of concentration in mol/L.

Ask: Provide only the value of recorded pEC50 for CO[C@@]12[C@H](COC(N)=O)C3=C(C(=O)C(C)=C(N)C3=O)N1C[C@@H]1N[C@@H]12
Reply: 4.70

###

# System: RT-4 cells
# procedure.summary: XTT cell viability assay
# Type: cell-based
# settings: Homo sapiens, RT-4, read-out: MMC EC50 concentration value
pEC50: −log10 of the molar value.
property: pEC50

Ask: Provide only the value of recorded pEC50 for CO[C@@]12[C@H](COC(N)=O)C3=C(C(=O)C(C)=C(N)C3=O)N1C[C@@H]1N[C@@H]12
Reply: 4.70 to 5.30
